Source of measurements: the NIST ThermoML archive (doi:10.1021/acs.jced.6b00178)

Below, each of the compounds is paired with its reported mass density value.
# TEST_NAME: xn = mol fraction of the nth substance listed
# TEST_CONTEXT: 303.15 K; 100 kPa; Liquid; Vibrating tube method; x2 = 0.25

[
  {
    "COMPOUND": "CCCCn1cc[n+](C)c1.COP(=O)([O-])OC [1-butyl-3-methyl-1H-imidazolium dimethylphosphate] + CCCC[n+]1ccn(C)c1.O=S(=O)([N-]S(=O)(=O)C(F)(F)F)C(F)(F)F",
    "mass density (kg/m3)": 1235.2
  },
  {
    "COMPOUND": "CCCCn1cc[n+](C)c1.N#C[S-] [1-butyl-3-methylimidazolium thiocyanate] + CCCC[n+]1ccn(C)c1.O=S(=O)([N-]S(=O)(=O)C(F)(F)F)C(F)(F)F",
    "mass density (kg/m3)": 1191.8
  },
  {
    "COMPOUND": "CC(=O)[O-].CCCCn1cc[n+](C)c1 [1-butyl-3-methylimidazolium acetate] + CCCC[n+]1ccn(C)c1.O=S(=O)([N-]S(=O)(=O)C(F)(F)F)C(F)(F)F",
    "mass density (kg/m3)": 1178.3
  },
  {
    "COMPOUND": "CCCCn1cc[n+](C)c1.O=S(=O)([O-])C(F)(F)F [1-butyl-3-methylimidazolium trifluoromethanesulfonate] + CCCC[n+]1ccn(C)c1.O=S(=O)([N-]S(=O)(=O)C(F)(F)F)C(F)(F)F",
    "mass density (kg/m3)": 1335.5
  },
  {
    "COMPOUND": "CCCCn1cc[n+](C)c1.F[P-](F)(F)(F)(F)F [1-butyl-3-methylimidazolium hexafluorophosphate] + CCCC[n+]1ccn(C)c1.O=S(=O)([N-]S(=O)(=O)C(F)(F)F)C(F)(F)F",
    "mass density (kg/m3)": 1385
  }
]

====

# TEST_CONTEXT: 288.15 K; 100 kPa; Liquid; Concentric cylinders viscometry
viscosity by entry:

[
  {
    "COMPOUND": "CCCCn1cc[n+](C)c1.COP(=O)([O-])OC [1-butyl-3-methyl-1H-imidazolium dimethylphosphate]",
    "viscosity [mPa·s]": 1454.6
  },
  {
    "COMPOUND": "CC(=O)[O-].CCCCn1cc[n+](C)c1 [1-butyl-3-methylimidazolium acetate]",
    "viscosity [mPa·s]": 645.6
  },
  {
    "COMPOUND": "CCCCn1cc[n+](C)c1.N#C[S-] [1-butyl-3-methylimidazolium thiocyanate]",
    "viscosity [mPa·s]": 104.51
  },
  {
    "COMPOUND": "CCCCn1cc[n+](C)c1.F[B-](F)(F)F [1-butyl-3-methylimidazolium tetrafluoroborate]",
    "viscosity [mPa·s]": 192.43
  },
  {
    "COMPOUND": "CCCCn1cc[n+](C)c1.N#CN=C=[N-] [1-butyl-3-methylimidazolium dicyanamide]",
    "viscosity [mPa·s]": 45.91
  }
]

====

# TEST_CONTEXT: 328.15 K; 100 kPa; Liquid; Vibrating tube method
Numbers after ± are expanded uncertainties.
The following compounds are shown together with reported mass density values.
OBSERVATION_TYPE: mass density

[
  {
    "COMPOUND": "CCCCn1cc[n+](C)c1.COP(=O)([O-])OC [1-butyl-3-methyl-1H-imidazolium dimethylphosphate]",
    "RESULT": "1137.8 ± 1.1 kg/m3"
  },
  {
    "COMPOUND": "CCCCn1cc[n+](C)c1.N#C[S-] [1-butyl-3-methylimidazolium thiocyanate]",
    "RESULT": "1052.6 ± 1 kg/m3"
  },
  {
    "COMPOUND": "CCCCn1cc[n+](C)c1.N#CN=C=[N-] [1-butyl-3-methylimidazolium dicyanamide]",
    "RESULT": "1041.3 ± 1 kg/m3"
  },
  {
    "COMPOUND": "CC(=O)[O-].CCCCn1cc[n+](C)c1 [1-butyl-3-methylimidazolium acetate]",
    "RESULT": "1034.5 ± 1 kg/m3"
  },
  {
    "COMPOUND": "CCCCn1cc[n+](C)c1.F[B-](F)(F)F [1-butyl-3-methylimidazolium tetrafluoroborate]",
    "RESULT": "1180.5 ± 0.6 kg/m3"
  }
]
